Method: Stabilization of various xanthates by methyl-beta-cyclodextrin at 60° C. (decomposition in water, detected by pH value and calibration curves)
Test context: 10 mg/ml xanthate in water, 24 h at 60° C., absence of cyclodextrin
I'd appreciate it if you could supply % Decomposition − Cyclodextrin values for the items below.
Numeric answer only, unit % assumed.

Fill in: % Decomposition − Cyclodextrin of CCCCCCCCCCOC(=S)S [Decyl, decylxanthate] is ___ 10

Any idea what % Decomposition − Cyclodextrin was measured for CCOC(=S)S ? 10

Given the compound CCCCOC(=S)S [Butyl, butylxanthate] , what is its reported % Decomposition − Cyclodextrin? 20

Returns the measured % Decomposition − Cyclodextrin for the input compound. Input: CC(C)OC(=S)S [Isopropyl, isopropylxanthate] 20

Recorded % Decomposition − Cyclodextrin of COC(=S)S [Methyl, methylxanthate] , please. 50

GET /values?readout=% Decomposition − Cyclodextrin&item= CCCOC(=S)S [Propyl, propylxanthate] 20

Suppose we examine the compound CCCCCCOC(=S)S [Hexylxanthate, hexylxanthate] ; what % Decomposition − Cyclodextrin value has been reported? 20

Which % Decomposition − Cyclodextrin is reported for this compound? S=C([S-])OC1CC2CC1C1CCCC21.[K+] (centres unmarked) 20
